Entry source: ChEMBL document CHEMBL5303304

Measured Growth Rate accompanies every entry in the list below.
# Tested on: Fibroblast
# Experiment Summary: Incucyte cell viability with human fibroblast; further: unitless GR value; below 1 slowed growth and below 0 cell loss
# Format: toxicity, cell-based
# Assay Context: 0 h, 10 µM, compound concentration 10 uM, replicate number 1
Quantity Name: Growth Rate

INSERT INTO results (smiles_code, quantity_name, val) VALUES
  ('CC(C)Oc1ccc(Cc2ccc(NC3=NCCN3)cc2)cc1', 'Growth Rate', -1),
  ('O=C(NCCN1CCOCC1)c1ccc2nn(CCOc3ccc(Cl)cc3)cc2c1', 'Growth Rate', -1),
  ('Cn1nccc1Nc1nccc(-c2cc3c(s2)C(C)(C)N(CCN2CCOCC2)C3=O)n1', 'Growth Rate', -0.63),
  ('Cc1cc(OCCC(C)(C)O)cc(C)c1-c1ccc(F)c2c1CC[C@H]2Oc1ccc2c(c1)OC[C@H]2CC(=O)O', 'Growth Rate', -0.99),
  ('CNC(=O)c1c[nH]c2ccc(Nc3nccc(-c4ccccn4)n3)cc12', 'Growth Rate', -1);
